- experimentNotes: Toxicity in iv dosed CD1 mouse administered qd for 5 days
- Type: organism-based
- details: in vivo
propertyName: NOAEL at 120 h (mg/kg/day)

                             compoundsmiles  unitssymbol  observedresult
0  Cc1cc(NS(C)(=O)=O)ccc1-n1c(CCC(=O)O)ccc1-c1ccc(-n2ccnc2C)s1    mg/kg/day               1

====

clearance listing for selected molecules.
- experimentNotes: Plasma clearance in BALB/c mouse at 2 mg/kg, iv by LC-MS/MS analysis
- Type: ADME, organism-based
- Set-up: dose 2 mg/kg, route intravenous
propertyName: clearance (mL/min/kg)

>>> print(df.to_string())
                             compoundsmiles  observedresult
0  Cc1nccn1-c1ccc(-c2ccc(CCC(=O)O)n2-c2ccc(O)cc2)s1            23.9
1  O=C(O)CCc1ccc(-c2ccc(-n3ccnc3)cc2)n1-c1ccc(O)cc1            37.1

====

- Test system: A549
- experimentNotes: Cytotoxicity against human A549 cells after 48 hrs by MTS assay
- Type: cell-based
- details: A549, 48 h
pIC50: −log10 of the molar value.
propertyName: pIC50

>>> print(df.to_string())
                             compoundsmiles  propertyname  observedresult
0  Cc1cc(NS(C)(=O)=O)ccc1-n1c(CCC(=O)O)ccc1-c1cc(-n2ccnc2C)cs1         pIC50          < 3.82
1  Cc1nccn1-c1ccc(-c2ccc(CCC(=O)O)n2-c2ccc(O)cc2)s1         pIC50          < 3.82
2  Cc1cc(NS(C)(=O)=O)ccc1-n1c(CCC(=O)O)ccc1-c1ccc(-n2ccnc2C)s1         pIC50          < 3.82
3  Cc1nccn1-c1ccc(-c2ccc(CCC(=O)O)n2-c2ccc(S(N)(=O)=O)cc2)s1         pIC50          < 3.82
4  Cc1cc(NS(C)(=O)=O)ccc1-n1c(CCC(=O)O)ccc1-c1ccc(-n2ccnc2)cc1         pIC50          < 3.82
5  Cc1cc(S(N)(=O)=O)ccc1-n1c(CCC(=O)O)ccc1-c1ccc(-n2ccnc2C)s1         pIC50          < 3.82
